testDescription: qHTS assay to identify small molecule antagonists of the androgen receptor (AR) signaling pathway - cell viability counter screen (AID 743033; also: nearly all actives have a fitted effect of over 45% in size)
experimentalSetup: AR-bla HEK293 viability, CellTiter-Glo luminescence, 16 h; series mostly up to 58.5 µM
Results filed as inconclusive are left out. Activity calls are given as the source filed them. Calls follow the shape of the dose curve; as a rule, active = well fitted cell-killing curve with a large enough effect in the repeat runs; inconclusive = weak or mixed curves; inactive = no such curve, though single readings can be large or run the other way.
Mark one answer only. Choices: active, inactive

Query: What was the test verdict on O=c1cccccc1O ?
Result: active

Query: What was the test verdict on Cc1cc(=O)oc2cc(N(C)C)ccc12 ?
Result: inactive

Query: What was the test verdict on CCOc1nc2cccc(C(=O)OC(C)OC(=O)OC3CCCCC3)c2n1Cc1ccc(-c2ccccc2-c2nn[nH]n2)cc1 (configuration not stated) ?
Result: active

Query: What was the test verdict on On1ccccc1=S ?
Result: active

Query: What was the test verdict on CCCC(c1cc(C(C)(C)C)c(O)cc1C)c1cc(C(C)(C)C)c(O)cc1C ?
Result: active

Query: What was the test verdict on O=C1Cc2cc(CCN3CCN(c4nsc5ccccc45)CC3)c(Cl)cc2N1 ?
Result: inactive

Query: What was the test verdict on O=C1C=CC(=O)N1 ?
Result: active

Query: What was the test verdict on CC(C)c1ccc2c(c1)CC[C@H]1[C@](C)(CN)CCC[C@]21C ?
Result: active

Query: What was the test verdict on O=C1c2ccccc2Cc2ccccc21 ?
Result: inactive

Query: What was the test verdict on NC(=O)N1C(=O)C(C(=O)c2cc(Cl)cs2)c2cc(F)c(Cl)cc21 (configuration not stated) ?
Result: inactive

Query: What was the test verdict on CCOc1ccc2nc3cc(N)ccc3c(N)c2c1 ?
Result: inactive

Query: What was the test verdict on c1ccc(CSCc2ccccc2)cc1 ?
Result: inactive

Query: What was the test verdict on O=Cc1cc(O)ccc1Br ?
Result: inactive

Query: What was the test verdict on Clc1ccccc1C(c1ccccc1)(c1ccccc1)n1ccnc1 ?
Result: active

Query: What was the test verdict on CN(C/C=C/C#CC(C)(C)C)Cc1cccc2ccccc12 ?
Result: inactive

Query: What was the test verdict on Cc1cccc2c1cc1ccc3cccc4ccc2c1c34 ?
Result: inactive

Query: What was the test verdict on CC(C)(C)CC(C)(C)c1ccc(O)c(Cc2ccc(Cl)cc2Cl)c1 ?
Result: inactive

Query: What was the test verdict on CCCCCCCCCCCCCC[P+](CCCC)(CCCC)CCCC (tested in a mixture with another compound) ?
Result: active

Query: What was the test verdict on Cc1cc(C2CCCCC2)n(O)c(=O)c1 ?
Result: inactive

Query: What was the test verdict on CC(C)CCCCCCCCCCCCCCC(=O)O ?
Result: inactive

Query: What was the test verdict on CCCCCCCCCCC=O ?
Result: inactive

Query: What was the test verdict on CN(C)c1ccc(C2(c3ccc(N(C)C)cc3)OC(=O)c3cc(N(C)C)ccc32)cc1 ?
Result: inactive

Query: What was the test verdict on CC(C)(C)C(=O)OCOC(=O)C1N2C(=O)CC2S(=O)(=O)C1(C)C (configuration not stated) ?
Result: inactive

Query: What was the test verdict on NNc1nc(-c2ccc([N+](=O)[O-])cc2)cs1 ?
Result: active

Query: What was the test verdict on COc1cc(/C=C/C(=O)O[C@H]2CC[C@]34C[C@]35CC[C@]3(C)[C@@H]([C@H](C)CCC=C(C)C)CC[C@@]3(C)[C@@H]5CC[C@H]4C2(C)C)ccc1O ?
Result: inactive

Query: What was the test verdict on CCCCCCCCOc1ccccc1C(=O)Nc1ccc(C(=O)OCC[N+](C)(CC)CC)cc1 ?
Result: inactive

Query: What was the test verdict on Nc1ccc2c3c(cccc13)-c1ccccc1-2 ?
Result: inactive

The reported numbers originate from PubChem BioAssay (Tox21).
